- Tested on: SF-295
- Experiment Notes: NCI tumour cell line growth inhibition, 48 h
Active and inactive are the calls of the source. No stated cut-off is given here; in the data, active = GI50 up to about 1.1 µM and inactive = higher.
Pick from 1 (yes) = active, 0 (no) = inactive when you respond.

COc1cc2c(c(O)c1O)C(=O)C1CCC(=O)N1C2c1cccc2ccccc12 (stereo not drawn); 0 (no)
O=C(/C=C/c1ccccc1)c1ccc(NCc2nc3ccccc3[nH]2)cc1; 0 (no)
C=C1C(=O)OC2CC1C(OC(=O)/C=C/c1ccccc1)C/C(C)=C/CC/C(C)=C/CCC2(C)O (stereo not drawn); 0 (no)
CN(C)CCCC12CCCCC1=Nc1ccccc12 (stereo not drawn); 0 (no)
CCCN(CCC)C1=Nc2ccccc2-n2cnnc2C1; 0 (no)

Fill in: this test's call for Cc1ccc(F)c2c(=O)cc(-c3ccccc3)[nH]c12 is ___
0 (no)

Fill in: this test's call for CN(C)c1nc(N(C)C)sc(=O)n1 is ___
0 (no)

Fill in: this test's call for CCS/C(=N\c1ccccc1)SC is ___
0 (no)

Fill in: this test's call for CCCCC1(C(NC(=O)c2ccccc2Cl)c2ccncc2)C(=O)N(c2ccccc2)N(c2ccccc2)C1=O (stereo not drawn) is ___
0 (no)

Fill in: this test's call for CC1=Nc2nc(Cl)cn2C(=O)C1(Cl)Cl is ___
0 (no)

---

- System: SK-OV-3
- Experiment Notes: NCI tumour cell line growth inhibition, 48 h
Activity calls are given as the source filed them. Rule as the data show it: active = GI50 up to about 1.1 µM and inactive = higher.
Exercise: state measured GI50 for each of the compounds provided.

Example entries and their recorded answers appear below.
CCO/C(Cc1ccc(Cl)cc1)=N/NC(N)=S; > 100 µM (inactive)
O=C1CCC2(c3ccc(F)cc3)Nc3cc(Cl)ccc3N12 (stereo unspecified); > 100 µM (inactive)
N#CC(/C(=N/NC(N)=S)C(=O)Nc1cccc(Cl)c1)c1ccccc1 (stereo unspecified); > 100 µM (inactive)
BrCC[N+]12CC[N+](CCBr)(CC1)C2; > 100 µM (inactive)
c1ccc(P2c3ccccc3Nc3ccccc32)cc1; > 100 µM (inactive)

API: the following record is the query input.
Consider the compound Cc1c(/C=N/NC(=S)Nc2cccc(Cl)c2)c(=O)n(-c2ccccc2)n1C and give its recorded GI50.
18.2 µM (inactive)

---

Exercise: state measured GI50 for each of the molecules provided.
- Test system: UACC-257
- Experiment Notes: NCI tumour cell line growth inhibition, 48 h
Active and inactive are the calls of the source. Rule as the data show it: active = GI50 up to about 1.1 µM and inactive = higher.

Example entries and their recorded answers appear below.
COc1cc2c(c(O)c1O)C(=O)C1CCC(=O)N1C2c1cccc2ccccc12 (centres undefined); > 50 µM (inactive)
CCN(CC)C(=O)Cn1c2c(c3ccccc31)CCCC2; > 100 µM (inactive)

Please report GI50 for every entry that follows.
1. CC[N+]1(C)CCC(O)(c2ccccc2)C(C(=O)c2ccccc2)C1 (centres undefined)
2. CCOC(=O)C1C=C1C(C)(C)O (centres undefined)
3. NC(Cc1ccc(S(=O)(=O)O)cc1)C(=O)NC(Cc1ccc(S(=O)(=O)O)cc1)C(=O)O (centres undefined)

1. 17.5 µM (inactive)
2. > 10 µM (inactive)
3. > 100 µM (inactive)

---

- System: EKVX
- Experiment Notes: NCI tumour cell line growth inhibition, 48 h
Active and inactive are the calls of the source. No stated cut-off is given here; in the data, active = GI50 up to about 1.1 µM and inactive = higher.
Recorded Metric: GI50

CC(=O)Oc1ccc(O)c2c1CCCC2; 64.9 µM (inactive)
CCCC(Sc1ccccc1)P(=O)(c1ccccc1)c1ccccc1 (stereo not drawn); 24 µM (inactive)
COc1cc(NCCC2CCCCN2)c2ncccc2c1 (stereo not drawn); > 100 µM (inactive)
CCOC(=O)[C@@]12NN=N[C@@H]1[C@H]1CO[C@H](c3ccccc3)N1C2=O; 13.9 µM (inactive)
CN(C)c1ccc(/C=C2\N=C(NN)NC2=O)cc1; 31.9 µM (inactive)
CCCCCC(/C=C/[C@@H]1[C@H]2CC(=O)O[C@H]2C[C@H]1N1CCOCC1)OC1CCCO1 (stereo partly drawn); > 100 µM (inactive)
CCOC(=O)/C(I)=C/c1cc(OC)c(OC)c(OC)c1; 15.8 µM (inactive)
COc1cc2c(c(O)c1O)C(=O)C1CCC(=O)N1C2c1cccc2ccccc12 (stereo not drawn); > 50 µM (inactive)
COc1ccc(C(=C2C=CC=C2)c2ccc(OC)cc2)cc1; 41 µM (inactive)
O=c1/c(=C/c2ccc(Cl)cc2Cl)sc2nc3ccccc3n12; > 100 µM (inactive)

Please report GI50 for every entry that follows.
1. O=C(O)c1ccc(CNCc2ccccc2)cc1
2. COc1ccc(CC#C/C=C/C(=O)NCC(C)C)cc1
3. O=C1C=C(O)c2nc(O)ccc2C1=O

["> 100 µM (inactive)", "> 100 µM (inactive)", "> 100 µM (inactive)"]
